B1: LINE1-mini (parent)
chain: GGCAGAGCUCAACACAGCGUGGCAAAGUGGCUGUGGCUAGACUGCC

# Variants of: B1
# Assay name: self-cleavage, relative activity (ratio to wild type); higher = more cleavage; in vitro, sequencing; the parent is a self-cleaving ribozyme
Response field class: enum, chosen by comparing self-cleavage against low bin (below 0.04), mid bin (0.04 to below 0.2), high bin (0.2 or more)

Variant identifier | Class label
C18U U38C | high bin

Exercise: Which class is correct for the following variant? A39G C46G
Solution: mid bin

Exercise: Which class is correct for the following variant? C10G A12U
Solution: low bin

Exercise: Which class is correct for the following variant? U32A U38C
Solution: mid bin

Exercise: Which class is correct for the following variant? G19C C23A
Solution: high bin

Exercise: Which class is correct for the following variant? C8A G22U
Solution: high bin

Exercise: Which class is correct for the following variant? C31U U32A
Solution: mid bin

Exercise: Which class is correct for the following variant? A11G A14C
Solution: low bin
